Test system: Leishmania donovani
Test: Drug level per mg of protein in miltefosine-sensitive Leishmania donovani promastigotes at 15 uM after 2 hrs
Format: ADME, organism-based
Conditions: in vivo
Readout label: Drug uptake (nmol/mg)

• C[N+](C)(C)CCOP(=O)([O-])OCCCCCC#C/C=C/C=C/C=C/c1ccccc1 = 7.6

====

Tested on: Leishmania pifanoi
Assay: Antileishmanial activity against miltefosine-sensitive Leishmania pifanoi MHOM/VE/60/Ltrod amastigotes by MTT assay
Type: functional
Conditions: read-out: LD50 (the source's name)
Readout label: LC50 (µM)

* C[N+](C)(C)CCOP(=O)([O-])OCCCCCC#C/C=C/C=C/C=C/c1ccccc1 | 26.5
* CCCCCCCCCCCCCCCCOP(=O)([O-])OCC[N+](C)(C)C | 26.3
* COC(COCCCCCCC/C=C/C=C/C=C/C=C/c1ccccc1)COP(=O)([O-])OCC[N+](C)(C)C (racemic) | 22.5
* C[N+](C)(C)CCOP(=O)([O-])OCCCCC/C=C/C=C/C=C/C=C/c1ccccc1 | 26

Source listed as ChEMBL document CHEMBL1138289.
